test_target: UniProt:Q9UHD2
Sequence (Q9UHD2 whole entry, species assumed): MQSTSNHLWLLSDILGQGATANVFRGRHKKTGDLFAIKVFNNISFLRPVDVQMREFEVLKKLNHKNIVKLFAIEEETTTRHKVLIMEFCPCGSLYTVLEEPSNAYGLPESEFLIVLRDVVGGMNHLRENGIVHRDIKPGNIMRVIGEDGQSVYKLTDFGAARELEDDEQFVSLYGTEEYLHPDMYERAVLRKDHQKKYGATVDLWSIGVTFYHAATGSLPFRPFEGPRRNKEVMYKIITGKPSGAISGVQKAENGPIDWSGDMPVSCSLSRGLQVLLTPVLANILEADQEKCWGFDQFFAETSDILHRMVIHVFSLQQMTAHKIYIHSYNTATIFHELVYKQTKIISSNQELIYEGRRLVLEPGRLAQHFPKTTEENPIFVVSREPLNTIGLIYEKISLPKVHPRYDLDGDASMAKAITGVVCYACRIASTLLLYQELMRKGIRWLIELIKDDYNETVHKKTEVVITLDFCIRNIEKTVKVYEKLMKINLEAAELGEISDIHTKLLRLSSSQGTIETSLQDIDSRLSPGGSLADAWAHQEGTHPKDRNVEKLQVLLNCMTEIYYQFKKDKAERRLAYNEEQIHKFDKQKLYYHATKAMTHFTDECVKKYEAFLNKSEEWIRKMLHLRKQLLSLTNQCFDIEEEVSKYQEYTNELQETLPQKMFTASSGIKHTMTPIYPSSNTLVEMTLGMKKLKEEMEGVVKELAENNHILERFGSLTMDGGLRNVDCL
assay_comment: TBK Biochemical Assay
experimental_setup: read-out: TBK1 IC50
Where a name gives a salt, the structure may show the parent alone.
IC50 values, listed per item

Sample records with IC50:
[
  {
    "compound": "COc1cc(C(=O)NC2CC3CCC2CC3)ccc1-c1cc2nccc(-c3ccc(OC4CCOCC4)c(C#N)c3)c2o1 (stereo not drawn) [Compound 495]",
    "reported_property": "IC50",
    "measurement": "100 to 1000 nM"
  },
  {
    "compound": "COc1cc(C(=O)N2CC(O)C2)ccc1-c1cc2nccc(-c3ccc(NC4CCOCC4)c(C#N)c3)c2o1 [Compound 101]",
    "reported_property": "IC50",
    "measurement": "< 100 nM"
  },
  {
    "compound": "COc1cc(C(=O)N(C)C(C)(C)CO)ccc1-c1cc2nccc(-c3ccc(OC4CCOCC4)c(C#N)c3)c2o1 [Compound 480]",
    "reported_property": "IC50",
    "measurement": "< 100 nM"
  },
  {
    "compound": "COc1cc(C(=O)N2C[C@H]3C[C@@H]2CN3C)ccc1-c1cc2nccc(-c3ccc(NC4CCOCC4)c(C#N)c3)c2o1 [Compound 517]",
    "reported_property": "IC50",
    "measurement": "< 100 nM"
  },
  {
    "compound": "COc1cc(C(=O)N(C)C)ncc1-c1cc2nccc(-c3ccc(OC4CCN(C(C)C)C4)c(C#N)c3)c2o1 (stereo not drawn) [Compound 428]",
    "reported_property": "IC50",
    "measurement": "1000 to 5000 nM"
  },
  {
    "compound": "COc1cc(C(=O)N(C)C)cnc1-c1cc2ncc(C)c(-c3ccc(NC4CCOCC4)c(C#N)c3)c2o1 [Compound 319]",
    "reported_property": "IC50",
    "measurement": "1000 to 5000 nM"
  },
  {
    "compound": "COc1cc(C(=O)N(C)C)cnc1-c1cc2nccc(-c3ccc(OC4CCOCC4)c(C#N)c3)c2o1 [Compound 274, hydrochloride]",
    "reported_property": "IC50",
    "measurement": "< 100 nM"
  },
  {
    "compound": "COc1cc(-c2cc3nccc(-c4ccc(OC5CCOCC5)c(C#N)c4)c3o2)ncc1C(=O)N(C)C [Compound 391]",
    "reported_property": "IC50",
    "measurement": "100 to 1000 nM"
  },
  {
    "compound": "COc1cc(C(=O)N(C)C)ccc1-c1cc2ncc(F)c(-c3ccc(NC4CCOCC4)c(C#N)c3)c2o1 [Compound 299]",
    "reported_property": "IC50",
    "measurement": "< 100 nM"
  },
  {
    "compound": "COc1cc(C(N)=O)ccc1-c1cc2nccc(-c3ccc(OC4CCOCC4)c(C#N)c3)c2o1 [Compound 40]",
    "reported_property": "IC50",
    "measurement": "< 100 nM"
  }
]

Form field: reported IC50 of COc1cc(C(=O)N2CC3CCCC3C2)ccc1-c1cc2nccc(-c3ccc(OC4CCOCC4)c(C#N)c3)c2o1 (stereo not drawn) [Compound 99] < 100 nM

Would you kindly repeat that for COc1cc(C(=O)NCC2CCCCC2(F)F)ccc1-c1cc2nccc(-c3ccc(NC4CCOCC4)c(C#N)c3)c2o1 (stereo not drawn) [Compound 180] ? 100 to 1000 nM
